assay: Cytotoxicity against human HUVEC cells assessed as reduction in cell growth incubated for 48 hrs by CCK-8 method; format: toxicity, cell-based
recordedMetric: IC50 at 48 h (µM)
Return type: number; implicit unit µM.

compound COc1ccc(/C=C/C(=O)c2ccc3c(c2O)C=CC(C)(C)O3)cc1OCCCN1CCCC1 , IC50 at 48 h observed: 19.6

###

test: Cytotoxicity against human HUVEC cells assessed as reduction in cell growth incubated for 48 hrs by CCK-8 method; type: toxicity, cell-based; settings: time 48 hrs
recordedMetric: IC20 at 48 h

Looking up COc1ccc(/C=C/C(=O)c2ccc3c(c2O)C=CC(C)(C)O3)cc1OCCCN1CCCC1 , I found its IC20 at 48 h recorded as 10.6 µM

###

test: Apparent volume of distribution in Sprague-Dawley rat at 20 mg/kg, iv administered as single dose measured upto 6 hrs by HPLC analysis; type: ADME, organism-based; details: in vivo, read-out: Vz
recordedMetric: Vd (L)
Report as a plain number; the unit L is understood.

// Vd value for COc1ccc(/C=C/C(=O)c2ccc3c(c2O)C=CC(C)(C)O3)cc1OCCCN1CCCC1 : 5.59

###

assay: Metabolic stability in Sprague-Dawley rat liver microsomes at 100 ug/ml measured after 60 mins in presence of NADPH generating system by HPLC analysis; type: ADME, Microsome; settings: at 100 µg/mL, read-out: Stability
recordedMetric: remaining at 1 h, 100 ug/ml (%)
The figure you give is taken to be in %; do not add the unit.

So, COc1ccc(/C=C/C(=O)c2ccc3c(c2O)C=CC(C)(C)O3)cc1OCCCN1CCCC1 ? Its remaining at 1 h, 100 ug/ml was 60

###

test: AUC (0 to infinity) in Sprague-Dawley rat at 20 mg/kg, iv administered as single dose measured upto 6 hrs by HPLC analysis; type: ADME, organism-based; design: time < 6 hrs, dose 20 mg/kg, route iv; conditions: in vivo
recordedMetric: AUC(0-inf) (µM·h)
Output spec: scalar in µM·h, unitless text.

According to the records, this compound COc1ccc(/C=C/C(=O)c2ccc3c(c2O)C=CC(C)(C)O3)cc1OCCCN1CCCC1 displays AUC(0-inf) of 8.88

###

assay: Metabolic stability in Sprague-Dawley rat liver microsomes assessed as half life at 100 ug/ml measured upto 120 mins in presence of NADPH generating system by HPLC analysis; type: ADME, Microsome; settings: dose 100 µg/ml
recordedMetric: half-life at 100 ug/ml (h)
// note: answer is a bare numeric in h

Consider COc1ccc(/C=C/C(=O)c2ccc3c(c2O)C=CC(C)(C)O3)cc1OCCCN1CCCC1 . Its measured half-life at 100 ug/ml is 2.3

###

assay: Metabolic stability in Sprague-Dawley rat liver microsomes at 100 ug/ml measured after 120 mins in presence of NADPH generating system by HPLC analysis; assay type: ADME, Microsome; conditions: at 100 µg/mL, read-out: Stability
recordedMetric: remaining at 2 h, 100 ug/ml (%)
Numeric only. Scale: %

COc1ccc(/C=C/C(=O)c2ccc3c(c2O)C=CC(C)(C)O3)cc1OCCCN1CCCC1 has a reported remaining at 2 h, 100 ug/ml of 51

###

test: Metabolic stability in Sprague-Dawley rat liver microsomes at 100 ug/ml measured after 10 mins in presence of NADPH generating system by HPLC analysis; format: ADME, Microsome; settings: at 100 µg/mL, read-out: Stability
recordedMetric: remaining at 10 min, 100 ug/ml (%)
Write the answer as a number in %, unit excluded.

remaining at 10 min, 100 ug/ml recorded for this molecule, COc1ccc(/C=C/C(=O)c2ccc3c(c2O)C=CC(C)(C)O3)cc1OCCCN1CCCC1 , is 90

###

assay: Tmax in Sprague-Dawley rat at 20 mg/kg, iv administered as single dose measured upto 6 hrs by HPLC analysis; format: ADME, organism-based; conditions: in vivo
recordedMetric: Tmax (min)
Supply the numeric figure in min, leaving out any unit text.

Tmax measured on COc1ccc(/C=C/C(=O)c2ccc3c(c2O)C=CC(C)(C)O3)cc1OCCCN1CCCC1 = 1.98

###

test: Half life in Sprague-Dawley rat at 20 mg/kg, iv administered as single dose measured upto 6 hrs by HPLC analysis; type: ADME, organism-based; conditions: in vivo
recordedMetric: half-life
Answer as a quantity: numeral, then unit.

Noted for COc1ccc(/C=C/C(=O)c2ccc3c(c2O)C=CC(C)(C)O3)cc1OCCCN1CCCC1 : its half-life reads 1.64 h

###

test: Metabolic stability in Sprague-Dawley rat liver microsomes at 100 ug/ml measured after 30 mins in presence of NADPH generating system by HPLC analysis; assay type: ADME, Microsome; conditions: at 100 µg/mL, read-out: Stability
recordedMetric: remaining at 0.5 h, 100 ug/ml (%)
Field format: number, assumed %, no unit text.

For COc1ccc(/C=C/C(=O)c2ccc3c(c2O)C=CC(C)(C)O3)cc1OCCCN1CCCC1 the molecule record lists remaining at 0.5 h, 100 ug/ml as 77
